Test system: absorption of sodium from the intestinal lumen
Assay: Inhibition of intestinal sodium absorption: urinary sodium (uNa) 16 h after single oral dose in rats
Type: in vivo, rat
Conditions: oral gavage, dose 3 mg/kg, 16 h post-dose
endpoint: Urine Na % of control (%)
Numbers only, in %.

{"smiles_notation": "CN1Cc2c(Cl)cc(Cl)cc2[C@H](c2cccc(S(=O)(=O)NCCOCCOCCNC(=O)CCC(CCC(=O)NCCOCCOCCNS(=O)(=O)c3cccc([C@@H]4CN(C)Cc5c(Cl)cc(Cl)cc54)c3)(CCC(=O)NCCOCCOCCNS(=O)(=O)c3cccc([C@@H]4CN(C)Cc5c(Cl)cc(Cl)cc54)c3)NC(=O)COCC(=O)O)c2)C1", "measurement_target": "absorption of sodium from the intestinal lumen", "value_unit": "%", "endpoint_result": 27}

Enquiry: Query Urine Na % of control for CN1Cc2c(Cl)cc(Cl)cc2[C@H](c2cccc(S(=O)(=O)NCCOCCOCCNC(=O)CCC(CCC(=O)NCCOCCOCCNS(=O)(=O)c3cccc([C@@H]4CN(C)Cc5c(Cl)cc(Cl)cc54)c3)(CCC(=O)NCCOCCOCCNS(=O)(=O)c3cccc([C@@H]4CN(C)Cc5c(Cl)cc(Cl)cc54)c3)NC(=O)CCCC(=O)O)c2)C1
Return: 28

----------
Target: Human NHE3 (Homo sapiens, UniProt P48764)
Construct: expressed in transfected cells; host or cells: Opossum kidney (OK) cells (ATCC), electroporation
Sequence (P48764 26-834): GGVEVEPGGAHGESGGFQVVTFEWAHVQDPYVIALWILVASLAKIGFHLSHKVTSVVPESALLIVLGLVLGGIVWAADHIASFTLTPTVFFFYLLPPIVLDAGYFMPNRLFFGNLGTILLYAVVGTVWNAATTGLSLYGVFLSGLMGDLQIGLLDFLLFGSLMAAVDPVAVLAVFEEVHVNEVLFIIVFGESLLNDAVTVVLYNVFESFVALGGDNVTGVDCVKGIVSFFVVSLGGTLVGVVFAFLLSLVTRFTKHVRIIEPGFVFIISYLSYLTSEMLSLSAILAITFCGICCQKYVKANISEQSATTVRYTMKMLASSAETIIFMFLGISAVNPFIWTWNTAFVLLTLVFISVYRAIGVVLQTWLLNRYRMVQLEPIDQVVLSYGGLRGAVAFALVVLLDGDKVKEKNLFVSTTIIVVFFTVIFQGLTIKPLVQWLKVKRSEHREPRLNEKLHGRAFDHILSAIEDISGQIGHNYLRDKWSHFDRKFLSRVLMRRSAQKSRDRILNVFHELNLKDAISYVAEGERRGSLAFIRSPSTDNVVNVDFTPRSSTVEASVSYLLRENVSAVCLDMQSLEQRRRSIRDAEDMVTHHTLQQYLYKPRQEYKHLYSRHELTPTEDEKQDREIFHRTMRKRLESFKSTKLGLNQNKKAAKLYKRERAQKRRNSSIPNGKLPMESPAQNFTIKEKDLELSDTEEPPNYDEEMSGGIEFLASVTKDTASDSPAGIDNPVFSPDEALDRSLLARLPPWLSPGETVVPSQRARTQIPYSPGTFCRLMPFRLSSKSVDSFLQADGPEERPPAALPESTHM
Assay: Cell-based NHE3 activity under prompt conditions (OK cells, BCECF pH recovery), human NHE3
Details: prompt conditions
Please provide measured Prompt Human NHE3 pIC50 for the entries that follow.

Record Prompt Human NHE3 pIC50 for all entries; do not skip any.
1. CN(C)[C@H]1Cc2ccc(Cl)cc2[C@@H]1Oc1ccc(S(=O)(=O)NCCOCCOCCNC(=O)NCCCCNC(=O)NCCOCCOCCNS(=O)(=O)c2ccc(O[C@H]3c4cc(Cl)ccc4C[C@@H]3N(C)C)cc2)cc1 [compound 116]
2. O=C(NCCOCCOCCOCCNS(=O)(=O)c1ccc(O[C@H]2c3ccccc3C[C@@H]2N2CCCCC2)cc1)c1ccc(C(=O)NCCOCCOCCOCCNS(=O)(=O)c2ccc(O[C@H]3c4ccccc4C[C@@H]3N3CCCCC3)cc2)cc1 [compound 117]
3. CN1Cc2c(Cl)cc(Cl)cc2[C@H](c2cccc(S(=O)(=O)N(C)CCOCCOCCNC(=O)NCCCN(CCCNC(=O)NCCOCCOCCN(C)S(=O)(=O)c3cccc([C@@H]4CN(C)Cc5c(Cl)cc(Cl)cc54)c3)CCCNC(=O)NCCOCCOCCN(C)S(=O)(=O)c3cccc([C@@H]4CN(C)Cc5c(Cl)cc(Cl)cc54)c3)c2)C1 [compound 106]
4. CN1Cc2c(Cl)cc(Cl)cc2[C@H](c2cccc(S(=O)(=O)NCCOCCOCCNC(=O)CCC(CCC(=O)NCCOCCOCCNS(=O)(=O)c3cccc([C@@H]4CN(C)Cc5c(Cl)cc(Cl)cc54)c3)(CCC(=O)NCCOCCOCCNS(=O)(=O)c3cccc([C@@H]4CN(C)Cc5c(Cl)cc(Cl)cc54)c3)NC(=O)CCCC(=O)O)c2)C1 [compound 137]
5. N=C(N)Nc1nc(-c2ccc(S(=O)(=O)NCCOCCOCCN)cc2)c2cc(Cl)ccc2n1 [compound 8]
6. CN1Cc2c(Cl)cc(Cl)cc2C(c2cccc(S(=O)(=O)NCCOCCOCCOCCNC(=O)NCCN(CCNC(=O)NCCOCCOCCOCCNS(=O)(=O)c3cccc([C@@H]4CN(C)Cc5c(Cl)cc(Cl)cc54)c3)CCNC(=O)NCCOCCOCCOCCNS(=O)(=O)c3cccc([C@@H]4CN(C)Cc5c(Cl)cc(Cl)cc54)c3)c2)C1 (stereo in doubt) [compound 59]
7. CN1Cc2c(Cl)cc(Cl)cc2[C@H](c2cccc(S(=O)(=O)NCCOCCOCCNC(=O)NCCC[N+](C)(CCCNC(=O)NCCOCCOCCNS(=O)(=O)c3cccc([C@@H]4CN(C)Cc5c(Cl)cc(Cl)cc54)c3)CCCNC(=O)NCCOCCOCCNS(=O)(=O)c3cccc([C@@H]4CN(C)Cc5c(Cl)cc(Cl)cc54)c3)c2)C1 [compound 109]

Return:
1: 8.30; 2: 8.20; 3: 7.90; 4: 7.30; 5: 6.40; 6: 7.30; 7: 8.10

----------
Test system: phosphorus and calcium levels in the urine of rats
Assay: Urinary excretion of phosphate and calcium in rats (16 h overnight urine)
Assay type: in vivo, rat
Details: rats, oral gavage, dose 10 mg/kg, 16 h post-dose
Please provide measured Urine P % of control for the entries that follow.
Field: value (include unit after the number)

{"molecule": "CN1Cc2c(Cl)cc(Cl)cc2[C@@H](c2cccc(S(=O)(=O)NCCOCCOCCNC(=O)NCCCCNC(=O)NCCOCCOCCNS(=O)(=O)c3cccc([C@@H]4CN(C)Cc5c(Cl)cc(Cl)cc54)c3)c2)C1 [compound 39]", "measurement_target": "phosphorus and calcium levels in the urine of rats", "Urine P % of control": "130%"}
{"molecule": "CN1Cc2c(Cl)cc(Cl)cc2[C@H](c2cccc(S(=O)(=O)NCCOCCOCCOCCNC(=O)c3cc(C(=O)NCCOCCOCCOCCNS(=O)(=O)c4cccc([C@@H]5CN(C)Cc6c(Cl)cc(Cl)cc65)c4)cc(C(=O)NCCOCCOCCOCCNS(=O)(=O)c4cccc([C@@H]5CN(C)Cc6c(Cl)cc(Cl)cc65)c4)c3)c2)C1 [compound 56]", "measurement_target": "phosphorus and calcium levels in the urine of rats", "Urine P % of control": "50%"}
{"molecule": "CN(CC(=O)NCCOCCOCCNC(=O)NCCOCCOCCOCCOc1cccc(-c2nc(NC(=N)N)nc3ccc(Cl)cc23)c1)CC(=O)NCCOCCOCCNC(=O)NCCOCCOCCOCCOc1cccc(-c2nc(NC(=N)N)nc3ccc(Cl)cc23)c1 [compound 43]", "measurement_target": "phosphorus and calcium levels in the urine of rats", "Urine P % of control": "101%"}
{"molecule": "NS(=O)(=O)c1ccc(O[C@H]2c3ccccc3C[C@@H]2N2CCCCC2)cc1 (racemic) [compound 38]", "measurement_target": "phosphorus and calcium levels in the urine of rats", "Urine P % of control": "120%"}
{"molecule": "CN(C)[C@H]1Cc2c(Cl)cc(Cl)cc2[C@@H]1Oc1ccc(S(=O)(=O)NCCOCCOCCNC(=O)CCC(C)(N)CCC(=O)NCCOCCOCCNS(=O)(=O)c2ccc(O[C@H]3c4cc(Cl)cc(Cl)c4C[C@@H]3N(C)C)cc2)cc1 [compound 174]", "measurement_target": "phosphorus and calcium levels in the urine of rats", "Urine P % of control": "61%"}

Record Urine P % of control for all entries; do not skip any.
1. CN(CC(=O)NCCOCCOCCNC(=O)NCCOCCOCCOCCOc1ccc(-c2nc(NC(=N)N)nc3ccc(Cl)cc23)cc1)CC(=O)NCCOCCOCCNC(=O)NCCOCCOCCOCCOc1ccc(-c2nc(NC(=N)N)nc3ccc(Cl)cc23)cc1 [compound 34]
2. CN(C)[C@H]1Cc2ccccc2[C@@H]1Oc1ccc(S(=O)(=O)NCCOCCOCCNC(=O)NCCCCNC(=O)NCCOCCOCCNS(=O)(=O)c2ccc(O[C@H]3c4ccccc4C[C@@H]3N(C)C)cc2)cc1 [compound 115]

Return:
1. 72%
2. 60%

Enquiry: Query Urine P % of control for CN1Cc2c(Cl)cc(Cl)cc2[C@H](c2cccc(S(=O)(=O)NCCOCCOCCNC(=O)N(C)CCCN(CCCN(C)C(=O)NCCOCCOCCNS(=O)(=O)c3cccc([C@@H]4CN(C)Cc5c(Cl)cc(Cl)cc54)c3)CCCN(C)C(=O)NCCOCCOCCNS(=O)(=O)c3cccc([C@@H]4CN(C)Cc5c(Cl)cc(Cl)cc54)c3)c2)C1 [compound 107]
Return: 59%
